Provide the reported normalized growth of each item.
procedure-text: chemical genetic growth profiling, strain panel (AID 1159580);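 further: tested at 20 µM; growth read once vehicle control cultures reached saturation at 30 °C; 1 = growth at the plate median or of vehicle wells; lower values mean less growth of the strain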
details: S. cerevisiae deletion strains, growth OD, locus YJR066W, strain TOR1, active compounds read low
Among all 5,500 compounds or so, about 2,000 (36%) were called active. Not shown: some 18% with an inconclusive outcome. Some of the results follow.
API note: the answer field is a bare number with no unit suffix.

Value lookup for normalized growth; key = C/C1=C/CC(C)(C)/C=C/C/C(C)=C/CC1
0.986

Also, COc1ccc(C2Sc3ccccc3N(CCN(C)C)C(=O)C2OC(C)=O)cc1 (stereo unspecified) please.
0.942

Also, COC(=O)c1c(OC)cc2c(c1C)Oc1c(Cl)c(O)c(Cl)c(C)c1C(=O)O2 please.
0.867

Also, C=C1C[C@]23C[C@@]1(O)CC[C@H]2[C@@]12C=C[C@H](O)[C@@](C)(C(=O)O1)[C@H]2[C@@H]3C(=O)O please.
0.962

Also, O=P1(N(CCCl)CCCl)NCCCO1 (stereo unspecified) please.
1

Also, CCCSc1ccc2nc(NC(=O)OC)[nH]c2c1 please.
0.909

Also, CC12CCC(=O)C=C1CCC1C2[C@@H](O)CC2(C)C1CC[C@]2(O)C(=O)COP(=O)(O)O (stereo partly specified) please.
0.917

Also, CCCOc1ccc2nc(NC(=O)OC)[nH]c2c1 please.
0.94

Also, COc1ccc2cc(CCC(C)=O)ccc2c1 please.
0.926

Also, CC(C)C[C@@H](CN)CC(=O)O please.
0.959

Also, CC(Cc1cccc(C(F)(F)F)c1)NCCOC(=O)c1ccccc1 (stereo unspecified) please.
0.879

----------
procedure-text: chemical genetic growth profiling, strain panel (AID 1159580);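 further: tested at 20 µM; growth read once vehicle control cultures reached saturation at 30 °C; 1 = growth at the plate median or of vehicle wells; lower values mean less growth of the strain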
details: S. cerevisiae deletion strains, growth OD, locus YMR078C, strain ctf18
In all, about 5,500 compounds went through this assay and about 2,000 (36%) were called active. Another 18% or so got no clear call; they are omitted. Cut-off read from the data, not from the text of the source: active = normalized growth mostly below about 0.91 (no sharp cut-off); inconclusive = no clear call, values can overlap the other calls; inactive = mostly above about 0.92. The list shows a part of the results.
Just give me one of these, please: active, inactive

What classification did C/C1=C/CC(C)(C)/C=C/C/C(C)=C/CC1 end up with in this test?
inactive

Also, CC(C)CCCC(C)[C@H]1CCC2C3CC=C4C[C@@H](O)CC[C@]4(C)C3CC[C@@]21C (stereo partly drawn) please.
inactive

Also, NC1=NCCN1CC(=O)O please.
inactive

Also, CO[C@H]1CC(O[C@@H]2/C(C)=C/C[C@@H]3C[C@@H](C[C@]4(CC[C@H](C)[C@@H](C5CCCCC5)O4)O3)OC(=O)[C@@H]3C=C(C)/C(=N\O)[C@H]4OC/C(=C\C=C\[C@@H]2C)[C@]43O)O[C@@H](C)C1O (stereo partly drawn) please.
inactive

Also, CC(=O)O[C@H]1CC[C@@]2(C)C(=CC(=O)C3C4CCC(C(C)CCCC(C)C)[C@@]4(C)CCC32)C1 (stereo partly drawn) please.
inactive

Also, CC(C)CCCC(C)C1CCC2C3C[C@@H](O)[C@@]4(O)C[C@@H](O)CC[C@]4(C)C3CC[C@]12C (stereo partly drawn) please.
inactive

Also, CCC(C)[C@H]1O[C@]2(C=C[C@@H]1C)C[C@@H]1C[C@@H](C/C=C(\C)[C@@H](OC3C[C@H](OC)C(O[C@H]4C[C@H](OC)[C@@H](O)[C@H](C)O4)[C@H](C)O3)[C@@H](C)/C=C/C=C3\CO[C@@H]4[C@H](O)C(C)=C[C@@H](C(=O)O1)[C@]34O)O2 (stereo partly drawn) please.
inactive

Also, N=C(N)N please.
inactive

Also, C/C1=C\CC(C)(C)/C=C/CC2(C)OC2CC1 (stereo not drawn) please.
inactive

Also, CC(=O)OCC(=O)[C@@]1(O)[C@H](C)CC2C3CCC4=CC(=O)C=C[C@]4(C)[C@@]3(F)[C@@H](O)C[C@@]21C (stereo partly drawn) please.
inactive

Also, CC(C)CCCC(C)C1CCC2C3=CC[C@H]4C[C@@H](O)CC[C@]4(C)C3CC[C@@]21C (stereo partly drawn) please.
inactive

Also, CC1=CC(=O)c2ccccc2C1=O please.
active

Also, CC(C)CCCC(C)[C@H]1CCC2C3CC=C4CC(=O)CC[C@]4(C)C3CC[C@@]21C (stereo partly drawn) please.
inactive

Also, CC(C)CCCC(C)[C@H]1CCC2C3CC[C@@H]4C[C@H](O)CC[C@]4(C)C3CC[C@@]21C (stereo partly drawn) please.
inactive

Also, Oc1cccc(O)c1 please.
inactive

Also, Nc1ccc(C(=O)O)cc1 please.
inactive

Also, CC(C)CCCC(C)[C@H]1CCC2C3C(=O)C=C4C[C@@H](O)CC[C@]4(C)C3CC[C@@]21C (stereo partly drawn) please.
inactive

Also, CC(C)=CCCC(C)[C@@H]1CC[C@]2(C)C3=C(CC[C@@]12C)C1(C)CC[C@H](O)C(C)(C)C1CC3 (stereo partly drawn) please.
inactive
